molecular target: UmpK (UMP/CMP kinase) (Dictyostelium discoideum, UniProt P20425); construct: gene pyrK; recombinant, expressed and purified as in Supporting Information; details not in main text; test: biochemical; parameters: fluorescence titration of nucleotide binding to UmpK (MANT-ADP fluorescence / displacement); conditions: Mg-free, with 250 uM CMP; read-out: wild-type (Mg-free) in presence of 250 uM CMP
Sequence (P20425 whole entry): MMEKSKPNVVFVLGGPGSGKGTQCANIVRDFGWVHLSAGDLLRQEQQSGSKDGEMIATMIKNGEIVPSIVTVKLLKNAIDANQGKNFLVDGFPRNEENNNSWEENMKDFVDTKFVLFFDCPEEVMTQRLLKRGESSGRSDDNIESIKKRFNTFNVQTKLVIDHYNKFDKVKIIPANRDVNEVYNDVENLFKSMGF
Reported Property: pKd
The value called pKd is obtained by taking minus log10 of the concentration in mol/L.

Q: Please report pKd for the following compound: Nc1ncnc2c1ncn2[C@@H]1O[C@H](COP(=O)(O)OP(=O)(O)OP(=O)(O)O)[C@@H](O)[C@H]1O
Result: 4.17
